Entry source: BigSolDB 2.1

- measurement.parameters: in water, 318.2 K
assay.metric: solubility (mole fraction)
// print number alone

### Prompt I am curious: what solubility (mole fraction) value has been reported for c1ccc2c(c1)Nc1ccccc1S2 ?
### Response 2.52e-07

###

- measurement.parameters: in water, 328.2 K
assay.metric: solubility (mole fraction)
Just the number, please, no unit after it.

### Prompt Can you share its solubility (mole fraction)? I mean this compound: c1ccc2c(c1)Nc1ccccc1S2
### Response 3.58e-07

###

- measurement.parameters: in propylene glycol, 338.2 K
assay.metric: solubility (mole fraction)

### Prompt Look up solubility (mole fraction) for this compound: c1ccc2c(c1)Nc1ccccc1S2
### Response 0.00852

###

- measurement.parameters: in propylene glycol, 298.2 K
assay.metric: solubility (mole fraction)
Lab note: jot the number down without any unit.

### Prompt Endpoint output: solubility (mole fraction) of c1ccc2c(c1)Nc1ccccc1S2 . Value?
### Response 0.00416

###

- measurement.parameters: in ethanol, 328.2 K
assay.metric: solubility (mole fraction)
Hey, just send me the number, nothing else.

### Prompt Quick check: solubility (mole fraction) of c1ccc2c(c1)Nc1ccccc1S2 ?
### Response 0.0145
